Value source: the supplement of paper PMC6089552

Tested on: A673/TR/shEF
assay.overview: cell viability (LOESS-normalised, relative to median of negative controls) (log2 ratio); higher = more viable cells (less compound effect), active = hit call of the paper (over 3 MAD below the median)
run.parameters: 0.308 µM; library screen: screen3; EWS-FLI1 expression: high (no doxycycline); treatment time: 72 h
Screen size: about 3,200 compounds; about 300 (9.4%) showed activity. This excerpt belongs to a sample that is enriched for actives.
The reader will find reported cell viability (log2) values listed item by item below.
Just the number, please, no unit attached.

Reference set (5 entries):
>  <compound>
Cn1c(CNc2ccc(C(=N)N)cc2)nc2cc(C(=O)N(CCC(=O)O)c3ccccn3)ccc21

>  <cell viability (log2)>
0.0563

$$$$
>  <compound>
CC1(C)S[C@@H]2[C@H](NC(=O)[C@H](N)c3ccc(O)cc3)C(=O)N2[C@H]1C(=O)O

>  <cell viability (log2)>
-0.0334

$$$$
>  <compound>
CCOc1cc2ncc(C#N)c(Nc3ccc(OCc4ccccn4)c(Cl)c3)c2cc1NC(=O)/C=C/CN(C)C

>  <cell viability (log2)>
-0.038

$$$$
>  <compound>
c1ccc([C@H]2CN3CCSC3=N2)cc1

>  <cell viability (log2)>
0.127

$$$$
>  <compound>
CCOc1cc2ncc(C#N)c(Nc3ccc(F)c(Cl)c3)c2cc1NC(=O)/C=C/CN(C)C

>  <cell viability (log2)>
0.0695

$$$$

// recorded cell viability (log2) for CCc1c2c(nc3ccc(OC(=O)N4CCC(N5CCCCC5)CC4)cc13)-c1cc3c(c(=O)n1C2)COC(=O)[C@]3(O)CC : -0.0633

// recorded cell viability (log2) for O=C1NC(=O)C(c2ccccc2)(c2ccccc2)N1 : 0.0798
